tested on: Candida albicans; experiment: Antifungal activity against Candida albicans ATCC 10231 after 48 hrs by broth microdilution method; assay type: functional; conditions: ATCC 10231, 48 h
Quantity Name: MIC (µM)
The response must be a number in µM with no trailing unit.

Worked cases, MIC given:
MIC of CN(C)C(=S)SC(=S)N1CCN(c2ncccn2)CC1 , assay on Candida albicans, is 153

// assay Candida albicans, entry CCN(C)C(=S)SC(=S)N(C)C , MIC value = 113

Turning now to a further record.
Given the compound CN(C)C(=S)SC(=S)N1CCCCCC1 and test system Candida albicans, the measured MIC is 23.9

* * *

test: Selectivity index, ratio of IC50 for human HeLa cells to MIC for metronidazole-resistant Trichomonas vaginalis CDC085 ATCC 50143; assay type: toxicity; settings: read-out: Selectivity Index
Here, each record is paired with measured selectivity ratio data.
The answer should be a number; do not append a unit.

Just so you know, measured selectivity ratio for CN(C)C(=S)SC(=S)N1CCN(c2ncccn2)CC1 came out at 131

Per the record, CN(C)C(=S)SC(=S)N1CCN(c2cccc(Cl)c2Cl)CC1 has selectivity ratio of 12

# selectivity ratio of CCOC(=O)N1CCN(C(=S)SC(=S)N(C)C)CC1 = 3

# selectivity ratio of CN(C)C(=S)SC(=S)N1CCN(C(=O)c2ccco2)CC1 = 16

selectivity ratio reading for CCSC(=S)N1CCN(C(=S)SC(=S)N(C)C)CC1 : 15

* * *

test: Tmax in Sprague-Dawley rat at 50 mg/kg, po measured up to 24 hrs by LC-MS/MS analysis; type: ADME, organism-based; conditions: in vivo
Quantity Name: Tmax (h)
Respond with the bare value in h.

Measured Tmax, CN(C)C(=S)SC(=S)N1CCN(c2ncccn2)CC1 : 2

* * *

test: Selectivity index, ratio of IC50 for human HeLa cells to MIC for metronidazole-susceptible Trichomonas vaginalis; assay type: toxicity; conditions: read-out: Selectivity Index
Quantity Name: selectivity ratio
# respond with the number and nothing more

Examples with their reported selectivity ratio follow.
Please fill in: selectivity ratio reported for CN(C)C(=S)SC(=S)N1CCOCC1 = 40

The recorded selectivity ratio for CN(C)C(=S)SC(=S)N1CCN(c2ccccc2)CC1 is 42

The recorded selectivity ratio for CCSC(=S)N1CCN(C(=S)SC(=S)N(C)C)CC1 is 31

selectivity ratio for CN(C)C(=S)SC(=S)N1CCN(c2cccc(Cl)c2Cl)CC1 is 25

Documented selectivity ratio of CC1CCCN(C(=S)SC(=S)N(C)C)C1 (configuration not stated) : 60

Others:
Reported selectivity ratio for CN(C)C(=S)SC(=S)N1CCN(c2ncccn2)CC1 was 1050

Lab note: measured selectivity ratio of CCOC(=O)N1CCN(C(=S)SC(=S)N(C)C)CC1 was 6

GET /value?item= COc1ccccc1N1CCN(C(=S)SC(=S)N(C)C)CC1 &field=selectivity ratio returns 15

Input CCCCN1CCN(C(=S)SC(=S)N(C)C)CC1 . Output selectivity ratio: 200

# selectivity ratio of CN(C)C(=S)SC(=S)N1CCN(c2cccc(Cl)c2)CC1 = 36

Noted for CN1CCN(C(=S)SC(=S)N(C)C)CC1 : its selectivity ratio reads 26

For reference, reported selectivity ratio for CN(C)C(=S)SC(=S)N1CCCC1 stands at 115

Given item CCCCNC(=S)N1CCN(C(=S)SC(=S)N(C)C)CC1 , the value recorded as its selectivity ratio is 41

Please fill in: selectivity ratio reported for CCN(C)C(=S)SC(=S)N(C)C = 18

* * *

test: Selectivity index, ratio of IC50 for human HeLa cells to MIC for metronidazole-resistant Trichomonas vaginalis CDC085 ATCC 50143; assay type: toxicity; details: read-out: Selectivity Index
# reported selectivity ratio; entries follow
Please state the value as a number alone, without comment.

Briefly, selectivity ratio measured for CN(C)C(=S)SC(=S)N1CCN(c2ccccc2)CC1 : 21

Reported selectivity ratio of CC1CCCN(C(=S)SC(=S)N(C)C)C1 (stereo not given) : 30

Continuing:
Lab note: measured selectivity ratio of CCCCNC(=S)N1CCN(C(=S)SC(=S)N(C)C)CC1 was 20

* * *

Each entry below carries its reported MIC.
test system: Candida albicans; assay: Antifungal activity against Candida albicans ATCC 10231 after 48 hrs by broth microdilution method; assay type: functional; conditions: ATCC 10231, 48 h
Please respond with the number in µM and leave the unit unwritten.

These recorded examples may help you get a feel for the data.
Looking up CN(C)C(=S)SC(=S)N1CCCCC1 , I found its MIC recorded as 50.4

Form: molecule = CN1CCN(C(=S)SC(=S)N(C)C)CC1 ; MIC = 190

Record CC1CCCN(C(=S)SC(=S)N(C)C)C1 (configuration not stated) , field MIC: 95.4

// next entry
Kindly note the recorded MIC for CN(C)C(=S)SC(=S)N1CCCC1 , which is 53.4

* * *

tested on: HeLa; test: Cytotoxicity against human HeLa cells after 24 hrs by MTT assay; assay type: cell-based
Below: a set of entries, each annotated with reported pIC50.
// pIC50 is dimensionless: -log10 of concentration (M)

So for CN(C)C(=S)SC(=S)N1CCN(C(=O)OC(C)(C)C)CC1 , the logged pIC50 turned out to be 2.88

// recorded pIC50 for CCSC(=S)N1CCN(C(=S)SC(=S)N(C)C)CC1 : 2.35

Record CN(C)C(=S)SC(=S)N1CCN(c2cccc(Cl)c2Cl)CC1 , field pIC50: 2.80

# pIC50 of CCN(C)C(=S)SC(=S)N(C)C = 2.68

For record CN(C)C(=S)SC(=S)N1CCN(C(=O)c2ccco2)CC1 the listed pIC50 is 2.62

Next:
The recorded pIC50 for entry CCCCNC(=S)N1CCN(C(=S)SC(=S)N(C)C)CC1 equals 2.55

// sample CCCCN1CCN(C(=S)SC(=S)N(C)C)CC1 , its pIC50 was 2.39

Note to self: pIC50 recorded for CN(C)C(=S)SC(=S)N1CCOCC1 was 2.40

The recorded pIC50 for entry CC1CCCN(C(=S)SC(=S)N(C)C)C1 (stereo not given) equals 2.54

According to the records, this molecule CN1CCN(C(=S)SC(=S)N(C)C)CC1 displays pIC50 of 2.91

Summary for this molecule, CCOC(=O)N1CCN(C(=S)SC(=S)N(C)C)CC1 : pIC50 is 3.28

Note to self: pIC50 recorded for CN(C)C(=S)SC(=S)N1CCN(c2ccccc2)CC1 was 2.79

Looking up COc1ccccc1N1CCN(C(=S)SC(=S)N(C)C)CC1 , I found its pIC50 recorded as 2.36

Reported pIC50 for CN(C)C(=S)SC(=S)N1CCCC1 was 2.51

* * *

system: Candida albicans; experiment: Antifungal activity against Candida albicans MTCC 183 after 48 hrs by broth microdilution method; assay type: functional; conditions: MTCC 183, 48 h
Criterion: MIC strictly under 100 µM. Met: label 1. Not met: label 0.

Prompt: In the record for CN(C)C(=S)SC(=S)N1CCN(c2ccccc2)CC1 , is MIC less than 100 µM?
Response: label 0

***
Prompt: API: query returns whether the compound falls strictly under 100 µM in MIC. Query: CCN(CC)C(=S)SC(=S)N(C)C
Response: label 0

Prompt: I wonder whether CN(C)C(=S)SC(=S)N1CCN(C(=O)c2ccco2)CC1 has MIC below 100 µM. Can you tell?
Response: label 1

* * *

experiment: Cmax in Sprague-Dawley rat at 50 mg/kg, po measured up to 24 hrs by LC-MS/MS analysis; type: ADME, organism-based; set-up: dose 50 mg/kg, route oral; conditions: in vivo
Quantity Name: Cmax (ng/mL)
# number only, unit ng/mL dropped from output

For reference, reported Cmax for CN(C)C(=S)SC(=S)N1CCN(c2ncccn2)CC1 stands at 47.1

* * *

system: Candida albicans; assay: Antifungal activity against Candida albicans ATCC 10231 after 48 hrs by broth microdilution method; assay type: functional; details: ATCC 10231, 48 h
Quantity Name: MIC (µM)
Supply the numeric figure in µM, leaving out any unit text.

Example compounds with recorded MIC:
Observed MIC on Candida albicans, entry CN(C)C(=S)SC(=S)N1CCN(C(=O)c2ccco2)CC1 , equals 146

Summary: CN(C)C(=S)SC(=S)N(C)C , Candida albicans, MIC = 120

Summary line: OC(Cn1cncn1)(Cn1cncn1)c1ccc(F)cc1F [FLUCONAZOLE] , Candida albicans, reported MIC = 3.26

New cases:
GET /values?item= CCSC(=S)N1CCN(C(=S)SC(=S)N(C)C)CC1 &system= Candida albicans returns MIC: 141

MIC value, target or system Candida albicans, for CN(C)C(=S)SC(=S)N1CCOCC1 : 25

The observed MIC for CN(C)C(=S)SC(=S)N1CCN(C(=O)OC(C)(C)C)CC1 when tested with Candida albicans stands at 143
